METHOD_SUMMARY: PDE10a-perfused brain permeability study (plasma and brain concentrations)
CONDITION_DETAILS: male, Sprague-Dawley, rat, brain
Counter-ions that a name gives are not always drawn.
RECORDED_METRIC: concentration at 2 h (ng/g)

* O=c1[nH]c(-c2ccc(-c3cnc(N4CCOCC4)c4nc(CCc5ccc6ccccc6n5)cn34)cn2)no1 [Cpd 74] | 0
* O=C(O)c1ccc(-c2cnc(N3CCOCC3)c3nc(/C=C/c4ccc5ccccc5n4)cn23)cc1 [Cpd 16, trifluoroacetic acid salt] | 0

a = CC(=O)NS(=O)(=O)c1ccc(-c2cnc(N3CCOCC3)c3nc(CCc4ccc5ccccc5n4)cn23)cc1 [Cpd 63]
b = c1ccc2nc(OCc3cn4c(-c5ccc(N6CCOCC6)nc5)cnc(N5CCOCC5)c4n3)ccc2c1 [Cpd 131]
Exercise: compare a and b ; which one has the greater concentration at 2 h? To answer, give the label that identifies your chosen option.
b
(b: 57.3 ng/g, a: 0 ng/g)
